- target.of.assay: T1, PD-1 on PD-1-expressing 300.19 cells (UniProt Q15116 25-288, limits assumed)
- T1 construct: whole, on cells
- run.description: rank among the 16 humanized clones in competition binding against labeled murine mAb BAP049, 2nd exp. (FIGURE 6B)
experimental.readout: Competition Binding 2nd exp.
One number for each entry.

These solved cases illustrate the format of a correct answer.
>  <binder>
BAP049-hum02 (antibody, human IgG4 S228P, kappa, V domains shown, also called Clone No. 2) VH: EVQLVQSGAEVKKPGESLRISCKGSGYTFTTYWMHWVRQATGQGLEWMGNIYPGTGGSNFDEKFKNRVTITADKSTSTAYMELSSLRSEDTAVYYCTRWTTGTGAYWGQGTTVTVSS VL: DIQMTQSPSSLSASVGDRVTITCKSSQSLLDSGNQKNFLTWYQQKPGQAPRLLIYWASTRESGIPPRFSGSGYGTDFTLTINNIESEDAAYYFCQNDYSYPYTFGQGTKVEIKR

>  <Competition Binding 2nd exp.>
2

$$$$
>  <binder>
BAP049-hum03 (antibody, human IgG4 S228P, kappa, V domains shown, also called Clone No. 3) VH: EVQLVQSGAEVKKPGESLRISCKGSGYTFTTYWMHWIRQSPSRGLEWLGNIYPGTGGSNFDEKFKNRFTISRDNSKNTLYLQMNSLRAEDTAVYYCTRWTTGTGAYWGQGTTVTVSS VL: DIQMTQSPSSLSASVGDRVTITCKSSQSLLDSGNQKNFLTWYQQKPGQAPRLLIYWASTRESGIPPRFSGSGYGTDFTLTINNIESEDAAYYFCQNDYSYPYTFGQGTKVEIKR

>  <Competition Binding 2nd exp.>
14

$$$$

Note: attention shifts to another entry.
Quick one: Competition Binding 2nd exp. for BAP049-hum16 (antibody, human IgG4 S228P, kappa, V domains shown, also called Clone No. 16) VH: EVQLVQSGAEVKKPGESLRISCKGSGYTFTTYWMHWVRQAPGQGLEWMGNIYPGTGGSNFDEKFKNRFTISRDNSKNTLYLQMNSLRAEDTAVYYCTRWTTGTGAYWGQGTTVTVSS VL: EIVLTQSPDFQSVTPKEKVTITCKSSQSLLDSGNQKNFLTWYQQKPGQAPRLLIYWASTRESGVPSRFSGSGSGTDFTFTISSLEAEDAATYYCQNDYSYPYTFGQGTKVEIKR ?
15
